# protein stability index values compiled below
B1: ZBED2 (parent)
chain: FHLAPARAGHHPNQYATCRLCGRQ

- Variants of: B1
- TEST_NAME: protein stability index of a GFP-peptide fusion (GPS, HEK-293T) (PSI 1-6); higher = more stable;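 also: lentivirally expressed fusions sorted by FACS into six bins by GFP to DsRed ratio, PSI derived from sequencing read proportions per bin multiplied by bin number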
- ASSAY_SETUP: c terminus: a fixed tail appended
Answer using only a numeral; do not append any unit.

These recorded examples may help you get a feel for the data.
[[record]]
mutation_id = "P12C"
endpoint_result = 2.67

[[record]]
mutation_id = "H10I"
endpoint_result = 2.3

[[record]]
mutation_id = "A8Y"
endpoint_result = 3.15

[[record]]
mutation_id = "R23N"
endpoint_result = 2.07

[[record]]
mutation_id = "C21L"
endpoint_result = 1.95


Task: Look at this variant and give its reported protein stability index. H2F
Output: 1.42

Task: Further, for R23K ?
Output: 1.37

Task: Further, for A8H ?
Output: 1.75

Task: Further, for P5G ?
Output: 1.77

Task: Further, for R7E ?
Output: 2.04

Task: Further, for P5S ?
Output: 1.24
